Measured values drawn from patent US10144715B2 for this set.

Molecular target: Gal4 DNA binding domain fused to the LBD of LXRβ in HEK293 cells (Homo sapiens (Human))
Sequence (P55055 222-460 limits assumed): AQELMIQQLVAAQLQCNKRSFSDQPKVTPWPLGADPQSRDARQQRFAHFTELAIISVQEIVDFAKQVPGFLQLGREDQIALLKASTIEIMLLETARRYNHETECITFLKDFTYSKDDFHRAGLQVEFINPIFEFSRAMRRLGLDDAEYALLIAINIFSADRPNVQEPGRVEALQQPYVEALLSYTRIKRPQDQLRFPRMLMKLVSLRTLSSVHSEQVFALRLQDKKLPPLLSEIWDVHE
Assay: cell-based
Conditions: agonist mode
reported.property: Cell LXRβ efficacy

The following molecules have reported results that may help.
molecule	test.system	Cell LXRβ efficacy
CC(F)(F)[C@H]1CC[C@@H](CN2CCN(c3cccc(S(C)(=O)=O)c3)C[C@H]2c2ccccc2)CC1 (single isomer, unassigned)	Gal4 DNA binding domain fused to the LBD of LXRβ in HEK293 cells (Homo sapiens (Human))	20%
CNS(=O)(=O)c1cc(N2CCN(c3ncc(C(C)O)c(C(F)(F)F)n3)[C@H](C(C)C)C2)ccc1F (stereo partly shown)	Gal4 DNA binding domain fused to the LBD of LXRβ in HEK293 cells (Homo sapiens (Human))	59 (46) %
CC(C)[C@H]1CN(c2ccc(CO)c(S(C)(=O)=O)c2)CCN1CC1CCC(O)(C(F)(F)F)CC1 (stereo partly shown)	Gal4 DNA binding domain fused to the LBD of LXRβ in HEK293 cells (Homo sapiens (Human))	30 (81) %

Pending molecule:
CC(C)[C@@H]1CN(c2ccc(CO)c(S(C)(=O)=O)c2)CCN1c1ccc(C(F)(F)F)nc1 tested on Gal4 DNA binding domain fused to the LBD of LXRβ in HEK293 cells (Homo sapiens (Human)) gave Cell LXRβ efficacy: 28 (105) %
